- tested system: Cytochrome P450 2C19 (Homo sapiens, UniProt P33261)
- Sequence (P33261 whole entry): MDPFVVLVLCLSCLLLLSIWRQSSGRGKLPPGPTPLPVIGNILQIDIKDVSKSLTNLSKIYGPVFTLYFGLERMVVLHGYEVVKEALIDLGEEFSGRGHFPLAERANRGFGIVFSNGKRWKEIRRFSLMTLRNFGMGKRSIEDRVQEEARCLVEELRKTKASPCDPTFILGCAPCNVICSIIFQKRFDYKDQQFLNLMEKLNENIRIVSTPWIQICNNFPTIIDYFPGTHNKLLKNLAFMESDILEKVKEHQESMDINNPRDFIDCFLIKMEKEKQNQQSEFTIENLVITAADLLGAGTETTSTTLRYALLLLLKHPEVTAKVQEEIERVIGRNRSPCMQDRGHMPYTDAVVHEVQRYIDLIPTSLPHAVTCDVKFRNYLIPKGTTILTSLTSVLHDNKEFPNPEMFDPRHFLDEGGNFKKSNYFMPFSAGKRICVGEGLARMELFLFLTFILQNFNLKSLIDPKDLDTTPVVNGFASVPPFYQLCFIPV
- assay method text: Inhibition of human recombinant CYP2C19
pIC50: −log10 of the molar value.
Entries annotated with measured pIC50

molecule smiles: Cc1cnc(C)n1CC(=O)c1ccc(-c2ccc(N3C[C@H](Cn4ccnn4)OC3=O)cc2F)cn1
endpoint: pIC50
result: < 4.70

molecule smiles: Cc1nccn1CC(=O)c1ccc(-c2ccc(N3C[C@H](Cn4ccnn4)OC3=O)cc2F)cn1
endpoint: pIC50
result: < 4.70

Below: the item to evaluate.
Incoming: Returns the measured pIC50 for the input compound. Input: O=C1O[C@@H](Cn2ccnn2)CN1c1ccc(-c2cccnc2)c(F)c1
Outgoing: < 4.70
